biological target: NOV1401; experiment: cell-based or functional assay; also: test concentration or dose not given here
Sequence (VL, as listed by the source): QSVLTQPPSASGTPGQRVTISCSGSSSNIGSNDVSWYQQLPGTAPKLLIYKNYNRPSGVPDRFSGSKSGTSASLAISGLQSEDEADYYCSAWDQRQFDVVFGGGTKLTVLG
measuredProperty: aPTT percentage reversal, NOV1401/anti NOV1401 ratio 1/10 (n/n)

| binder | result |
| --- | --- |
| IDT9 (Fab, V domains shown, Fab; also called anti-NOV1401 Fab IDT9) VH: QVQLVQSGAEVKKPGASVKVSCKASGYTFTNYYVHWVRQAPGQGLEWMGWINPYNGNTNYAQKFQGRVTMTRDTSISTAYMELSRLRSEDTAVYYCARGASSIRMSYYLDVWGQGTLVTVSS VL: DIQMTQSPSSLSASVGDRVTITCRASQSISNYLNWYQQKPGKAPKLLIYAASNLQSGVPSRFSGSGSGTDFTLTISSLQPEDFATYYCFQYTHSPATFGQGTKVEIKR | 46% |
| IDT1 (Fab, V domains shown, Fab (heavy chain is VH-CH1); also called anti-NOV1401 Fab IDT1) VH: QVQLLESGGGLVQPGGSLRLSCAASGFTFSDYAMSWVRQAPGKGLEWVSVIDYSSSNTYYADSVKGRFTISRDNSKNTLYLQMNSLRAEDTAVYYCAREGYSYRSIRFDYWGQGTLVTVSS VL: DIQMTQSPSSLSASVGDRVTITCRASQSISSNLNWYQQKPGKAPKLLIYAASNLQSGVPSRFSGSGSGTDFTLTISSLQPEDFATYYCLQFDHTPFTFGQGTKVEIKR | 64% |
| IDT6 (Fab, V domains shown, Fab with a lambda light chain; also called anti-NOV1401 Fab IDT6) VH: QVQLVQSGAEVKKPGESLKISCKGSGYSFTNYWIGWVRQMPGKGLEWMGIIFPGVSYTKYSPSFQGQVTISADKSISTAYLQWSSLKASDTAMYYCARGSDQTLRGSRAMDYWGQGTLVTVSS VL: QSALTQPASVSGSPGQSITISCTGTSSDVGISNYVSWYQQHPGKAPKLMIYEVSNRPSGVSNRFSGSKSGNTASLTISGLQAEDEADYYCQSYTSLNYVFGGGTKLTVLG | 38% |
